The reported measurements were obtained from patent US20100204328A1.

# maps each entry to its ROS inhibition
Tested on: ROS
Assay: ROS-inhibition with pre-incubation versus post-incubation (pre-stimulation) of cells
Type: cell-based
Conditions: single substances, FIGS. 31 to 34
RECORDED METRIC: ROS inhibition

• N[C@@H](CCC(=O)N[C@@H](CS)C(=O)NCC(=O)O)C(=O)O = 55-65%
• CC(=O)N[C@@H](CS)C(=O)O = 60-80%
• O=C(O)[C@H](O)[C@@H](O)[C@H](O)[C@H](O)CO = 15-30%
• O=C1O[C@H]([C@@H](O)CO)C(O)=C1O = 20-80%

====

Test system: isolated Leukocytes
Assay: Design-of-experiments screening of antioxidants: intracellular free radical formation in PMA-stimulated isolated leukocytes (96-well plate, fluorescence kinetics)
Format: cell-based, human
Details: model, other substances on a medium level, FIG. 9
RECORDED METRIC: influence of the concentration of a single substance on the ROS-Inhibition ratio

- CC(=O)N[C@@H](CS)C(=O)O: quadratic character
- O=C(O)[C@H](O)[C@@H](O)[C@H](O)[C@H](O)CO: quadratic character
